MEASURED ON: PSMA (Homo sapiens, UniProt Q04609)
Construct: host or cells: LNCaP human prostate carcinoma cells
Sequence (Q04609 whole entry): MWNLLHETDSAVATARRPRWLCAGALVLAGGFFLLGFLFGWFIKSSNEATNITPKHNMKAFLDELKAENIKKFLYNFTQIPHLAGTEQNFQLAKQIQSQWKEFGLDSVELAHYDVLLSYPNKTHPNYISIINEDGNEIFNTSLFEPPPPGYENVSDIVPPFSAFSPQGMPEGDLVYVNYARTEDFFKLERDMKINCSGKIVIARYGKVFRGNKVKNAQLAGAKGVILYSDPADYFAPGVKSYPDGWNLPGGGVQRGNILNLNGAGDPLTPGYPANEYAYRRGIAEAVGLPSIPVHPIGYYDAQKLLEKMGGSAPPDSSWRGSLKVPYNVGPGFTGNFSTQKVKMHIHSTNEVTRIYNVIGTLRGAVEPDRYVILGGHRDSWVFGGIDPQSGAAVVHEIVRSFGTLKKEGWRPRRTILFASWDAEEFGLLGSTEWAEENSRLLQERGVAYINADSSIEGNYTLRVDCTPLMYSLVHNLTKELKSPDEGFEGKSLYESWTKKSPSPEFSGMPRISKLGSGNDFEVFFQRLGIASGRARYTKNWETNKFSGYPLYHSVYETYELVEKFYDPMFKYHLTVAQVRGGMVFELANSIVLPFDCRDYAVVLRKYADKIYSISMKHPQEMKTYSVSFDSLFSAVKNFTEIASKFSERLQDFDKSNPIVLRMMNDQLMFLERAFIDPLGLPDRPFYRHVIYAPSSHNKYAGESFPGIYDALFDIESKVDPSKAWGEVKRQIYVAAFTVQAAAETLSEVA
EXPERIMENT NOTES: Competitive PSMA binding assay on LNCaP cells with ([125I]I-BA)KuE as radioligand
CONDITION CONTEXT: LNCaP cells 150,000/well, ([125I]I-BA)KuE c = 0.2 nM, HBSS (1% BSA), 4°C, 1 h, mean ± SD (n = 3); read-out: IC50 (PSMA affinity)
Here, each record is paired with measured IC50 data.
OBSERVATION TYPE: IC50

[^natGa]DOTAGA-FFK(Sub-KuE) [^natGa-11] | 12.1 nM
[^natLu]DOTAGA-ffk(Sub-KuE) [^natLu-12] | 13.1 nM
[^natGa]DOTAGA-ffk(Sub-KuE) [^natGa-12] | 15.9 nM
[^natLu]DOTAGA-FFK(Sub-KuE) [^natLu-11] | 15.1 nM
